Here, each record is paired with measured koff data.
- SUBJECT OF TEST: T1, MUC1-ECD (human, UniProt P15941 1098-1155)
- T1 construct: also called Ag MUC1-ECD; Antigen MUC1-ECD
- T1 sequence: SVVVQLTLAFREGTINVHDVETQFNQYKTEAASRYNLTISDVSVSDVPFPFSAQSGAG
- TEST: SPR Biacore T200, antibody on chip, MUC1-ECD analyte, 1:1 fit
Provide only the numeric value, understood in s⁻¹.

Example cases with answers are listed next.
BINDER	VALUE UNITS	koff
VH2 + VL3 (antibody, V domains shown) VH: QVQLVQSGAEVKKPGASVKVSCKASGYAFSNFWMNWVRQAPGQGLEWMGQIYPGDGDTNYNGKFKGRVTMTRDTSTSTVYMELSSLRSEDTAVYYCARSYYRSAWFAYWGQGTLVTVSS VL: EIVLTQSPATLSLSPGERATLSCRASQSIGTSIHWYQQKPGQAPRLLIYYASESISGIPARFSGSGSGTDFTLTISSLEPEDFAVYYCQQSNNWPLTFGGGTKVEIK	s⁻¹	0.00145
VH5 + VL2 (antibody, V domains shown) VH: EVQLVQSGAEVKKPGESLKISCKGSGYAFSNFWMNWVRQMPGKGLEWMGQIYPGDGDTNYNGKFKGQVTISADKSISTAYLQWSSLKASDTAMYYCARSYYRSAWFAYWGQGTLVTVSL VL: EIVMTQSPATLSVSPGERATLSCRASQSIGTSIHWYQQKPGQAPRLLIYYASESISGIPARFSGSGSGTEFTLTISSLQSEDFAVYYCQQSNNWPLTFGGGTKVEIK	s⁻¹	0.00125
VH1 + VL4 (antibody, V domains shown) VH: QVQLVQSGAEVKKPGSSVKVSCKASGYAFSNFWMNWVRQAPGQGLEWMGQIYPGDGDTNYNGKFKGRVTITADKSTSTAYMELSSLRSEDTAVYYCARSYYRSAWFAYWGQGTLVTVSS VL: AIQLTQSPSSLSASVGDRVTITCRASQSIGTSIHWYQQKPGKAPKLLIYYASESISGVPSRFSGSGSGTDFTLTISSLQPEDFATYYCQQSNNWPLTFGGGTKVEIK	s⁻¹	0.00315

Consider now this further binder.
Inquiry: Please look up its koff: VH1 + VL3 (antibody, V domains shown) VH: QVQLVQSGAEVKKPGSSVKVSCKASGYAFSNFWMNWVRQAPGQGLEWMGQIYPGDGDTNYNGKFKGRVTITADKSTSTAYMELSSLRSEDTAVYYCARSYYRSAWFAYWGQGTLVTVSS VL: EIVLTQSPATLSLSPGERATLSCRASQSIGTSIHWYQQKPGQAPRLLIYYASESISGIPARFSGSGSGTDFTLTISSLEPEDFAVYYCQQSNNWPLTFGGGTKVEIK
Reply text: 0.00222
